experiment: Cytotoxicity against human THP1 cells by MTT assay; format: cell-based, THP-1

>  <mol>
O=c1c(O)c(-c2cccc(-c3ccc(O)c(O)c3)c2)oc2ccc(O)cc12

>  <CC50>
25 to 50 µM

$$$$
>  <mol>
COc1ccc2oc(-c3csc4ccccc34)c(OC(=O)N(C)C)c(=O)c2c1

>  <CC50>
12.5 to 25 µM

$$$$
>  <mol>
COc1ccc2c(=O)c(O)c(-c3cc(C)cs3)oc2c1

>  <CC50>
25 to 50 µM

$$$$

---

Each entry below carries its reported inhibition at 0.5 h, 10 µM.
target: CYP3A4 (Homo sapiens); assay: Inhibition of human microsomal CYP3A4 expressed in baculovirus infected insect cells at 10 uM using luciferin-IPA as substrate preincubated with enzyme/substrate mixture for 30 mins followed by further incubation with NADPH for 30 mins by CYP450 luciferase Glo assay relative to control; format: ADME; details: probe luciferin-IPA
Sequence (P08684 whole entry): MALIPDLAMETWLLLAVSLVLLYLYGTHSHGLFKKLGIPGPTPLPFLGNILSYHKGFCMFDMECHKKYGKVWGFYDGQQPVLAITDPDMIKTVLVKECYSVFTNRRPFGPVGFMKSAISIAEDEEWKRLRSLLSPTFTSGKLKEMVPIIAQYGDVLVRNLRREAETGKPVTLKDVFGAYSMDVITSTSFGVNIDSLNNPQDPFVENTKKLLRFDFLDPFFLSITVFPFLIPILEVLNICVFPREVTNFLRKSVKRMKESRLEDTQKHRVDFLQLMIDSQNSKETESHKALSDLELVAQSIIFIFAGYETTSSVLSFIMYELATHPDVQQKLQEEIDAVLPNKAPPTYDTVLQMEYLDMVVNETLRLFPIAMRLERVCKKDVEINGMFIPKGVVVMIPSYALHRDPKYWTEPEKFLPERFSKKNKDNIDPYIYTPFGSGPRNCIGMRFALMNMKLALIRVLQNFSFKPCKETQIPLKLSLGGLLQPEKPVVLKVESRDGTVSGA

>  <mol>
Cc1ccc2c(=O)c(O)c(-c3csc4ccccc34)oc2c1

>  <units-text>
%

>  <inhibition at 0.5 h, 10 µM>
13.2

$$$$
>  <mol>
O=c1c(O)c(-c2csc3ccccc23)oc2ccc(Br)cc12

>  <units-text>
%

>  <inhibition at 0.5 h, 10 µM>
-6.12

$$$$
>  <mol>
O=c1c(O)c(-c2cccc(-c3ccc(O)c(O)c3)c2)oc2ccc(O)cc12

>  <units-text>
%

>  <inhibition at 0.5 h, 10 µM>
21.5

$$$$
>  <mol>
O=c1c(O)c(-c2csc3ccccc23)oc2ccc(F)cc12

>  <units-text>
%

>  <inhibition at 0.5 h, 10 µM>
11.5

$$$$

---

biological target: CYP2D6 (Homo sapiens); assay: Inhibition of human microsomal CYP2D6 expressed in baculovirus infected insect cells at 10 uM using luciferin-ME as substrate preincubated with enzyme/substrate mixture for 30 mins followed by further incubation with NADPH for 30 mins by CYP450 luciferase Glo assay relative to control; type: ADME; conditions: probe luciferin-ME
Sequence (P10635 whole entry): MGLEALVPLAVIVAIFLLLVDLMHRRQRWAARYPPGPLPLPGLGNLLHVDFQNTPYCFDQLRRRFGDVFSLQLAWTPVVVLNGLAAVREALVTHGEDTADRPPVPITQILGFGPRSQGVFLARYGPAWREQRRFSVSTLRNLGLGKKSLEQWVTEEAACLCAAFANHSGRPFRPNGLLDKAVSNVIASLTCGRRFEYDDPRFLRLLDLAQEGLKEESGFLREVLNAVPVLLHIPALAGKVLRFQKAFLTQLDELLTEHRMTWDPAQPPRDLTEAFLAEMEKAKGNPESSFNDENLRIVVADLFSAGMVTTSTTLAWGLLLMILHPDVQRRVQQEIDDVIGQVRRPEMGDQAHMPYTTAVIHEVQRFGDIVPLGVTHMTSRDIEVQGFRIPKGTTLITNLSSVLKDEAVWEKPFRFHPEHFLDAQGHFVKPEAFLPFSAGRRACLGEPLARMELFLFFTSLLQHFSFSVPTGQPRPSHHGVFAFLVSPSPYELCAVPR

>  <molecule>
Cc1csc(-c2oc3cccc(O)c3c(=O)c2O)c1

>  <inhibition at 0.5 h, 10 µM / %>
10.9

$$$$
>  <molecule>
O=c1c(O)c(-c2csc3ccccc23)oc2ccc(Br)cc12

>  <inhibition at 0.5 h, 10 µM / %>
27.5

$$$$
>  <molecule>
CCCOc1c(-c2csc3ccccc23)oc2ccc(OC)cc2c1=O

>  <inhibition at 0.5 h, 10 µM / %>
66.5

$$$$
>  <molecule>
CCCCCCCCCCCCCCCCOP(=O)([O-])OCC[N+](C)(C)C [MILTEFOSINE]

>  <inhibition at 0.5 h, 10 µM / %>
30.8

$$$$
>  <molecule>
O=c1c(O)c(-c2csc3ccccc23)oc2cc(F)ccc12

>  <inhibition at 0.5 h, 10 µM / %>
23

$$$$
>  <molecule>
Cc1ccc2oc(-c3ccc(C)s3)c(O)c(=O)c2c1

>  <inhibition at 0.5 h, 10 µM / %>
22.6

$$$$
>  <molecule>
O=c1c(O)c(-c2csc3ccccc23)oc2cc(Cl)ccc12

>  <inhibition at 0.5 h, 10 µM / %>
-3.33

$$$$
>  <molecule>
COc1ccc2oc(-c3c[nH]c4ccccc34)c(O)c(=O)c2c1

>  <inhibition at 0.5 h, 10 µM / %>
-8

$$$$
>  <molecule>
O=c1c(O)c(-c2csc3ccccc23)oc2ccc(Cl)cc12

>  <inhibition at 0.5 h, 10 µM / %>
16.2

$$$$
>  <molecule>
O=c1c(O)c(-c2cccc(-c3ccc(O)c(O)c3)c2)oc2ccc(O)cc12

>  <inhibition at 0.5 h, 10 µM / %>
34

$$$$
>  <molecule>
CCCCC(=O)Oc1c(-c2csc3ccccc23)oc2ccc(OC)cc2c1=O

>  <inhibition at 0.5 h, 10 µM / %>
29.3

$$$$
>  <molecule>
COc1ccc2oc(-c3cccc(-c4ccc(OC)c(OC)c4)c3)c(O)c(=O)c2c1

>  <inhibition at 0.5 h, 10 µM / %>
40.6

$$$$
>  <molecule>
COc1ccc2oc(-c3csc4ccccc34)c(OC(=O)C(C)(C)C)c(=O)c2c1

>  <inhibition at 0.5 h, 10 µM / %>
11.8

$$$$
>  <molecule>
COc1ccc2c(=O)c(O)c(-c3ccc4c(c3)OCO4)oc2c1

>  <inhibition at 0.5 h, 10 µM / %>
105

$$$$
>  <molecule>
CCOc1c(-c2csc3ccccc23)oc2ccc(OC)cc2c1=O

>  <inhibition at 0.5 h, 10 µM / %>
50.2

$$$$
>  <molecule>
Cc1ccc2oc(-c3csc4ccccc34)c(O)c(=O)c2c1

>  <inhibition at 0.5 h, 10 µM / %>
16

$$$$
>  <molecule>
O=c1c(O)c(-c2ccco2)oc2cc(O)ccc12

>  <inhibition at 0.5 h, 10 µM / %>
28.4

$$$$
>  <molecule>
COc1ccc2c(=O)c(O)c(-c3csc4ccccc34)oc2c1

>  <inhibition at 0.5 h, 10 µM / %>
20.3

$$$$
>  <molecule>
CCOc1ccc2c(=O)c(O)c(-c3csc4ccccc34)oc2c1

>  <inhibition at 0.5 h, 10 µM / %>
24.7

$$$$

---

Item-by-item account of inhibition at 2 h, 10 µM
target: hERG (KCNH2) (Homo sapiens, UniProt Q12809); experiment: Inhibition of human ERG at 10 uM incubated for 2 hrs by fluorescence polarization assay relative to control
Sequence (Q12809 whole entry): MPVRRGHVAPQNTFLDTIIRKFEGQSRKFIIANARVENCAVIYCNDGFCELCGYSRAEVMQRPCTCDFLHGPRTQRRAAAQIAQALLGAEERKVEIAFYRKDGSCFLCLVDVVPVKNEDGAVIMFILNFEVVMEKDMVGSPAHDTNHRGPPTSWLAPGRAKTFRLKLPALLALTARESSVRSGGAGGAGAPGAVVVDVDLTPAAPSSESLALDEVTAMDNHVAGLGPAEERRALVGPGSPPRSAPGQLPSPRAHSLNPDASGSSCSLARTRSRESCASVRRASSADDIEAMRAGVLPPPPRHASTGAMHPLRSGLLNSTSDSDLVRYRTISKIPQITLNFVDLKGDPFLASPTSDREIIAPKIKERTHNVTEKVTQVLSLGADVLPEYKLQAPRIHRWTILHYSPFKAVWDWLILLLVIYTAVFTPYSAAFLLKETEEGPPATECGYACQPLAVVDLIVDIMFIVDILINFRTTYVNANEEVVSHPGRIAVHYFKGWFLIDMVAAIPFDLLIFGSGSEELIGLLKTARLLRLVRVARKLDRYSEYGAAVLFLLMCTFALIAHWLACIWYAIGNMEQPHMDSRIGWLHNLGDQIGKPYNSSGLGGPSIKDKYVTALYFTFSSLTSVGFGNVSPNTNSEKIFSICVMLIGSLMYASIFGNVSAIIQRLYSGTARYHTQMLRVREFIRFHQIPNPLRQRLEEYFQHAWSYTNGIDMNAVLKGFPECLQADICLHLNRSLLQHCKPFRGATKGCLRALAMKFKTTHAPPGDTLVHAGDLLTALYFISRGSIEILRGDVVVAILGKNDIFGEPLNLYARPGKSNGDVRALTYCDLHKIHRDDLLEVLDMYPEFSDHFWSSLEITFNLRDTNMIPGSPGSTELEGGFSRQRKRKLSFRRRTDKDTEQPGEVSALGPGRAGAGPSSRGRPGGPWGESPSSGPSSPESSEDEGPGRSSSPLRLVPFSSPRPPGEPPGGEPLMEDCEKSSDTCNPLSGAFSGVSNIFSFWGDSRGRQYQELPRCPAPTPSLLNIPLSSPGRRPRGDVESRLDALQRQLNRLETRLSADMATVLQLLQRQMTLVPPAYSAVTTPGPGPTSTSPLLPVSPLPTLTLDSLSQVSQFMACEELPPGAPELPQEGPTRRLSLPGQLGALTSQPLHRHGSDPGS
assay-readout: inhibition at 2 h, 10 µM (%)

>  <mol>
Cc1csc(-c2oc3cccc(O)c3c(=O)c2O)c1

>  <assay-readout>
inhibition at 2 h, 10 µM

>  <units-text>
%

>  <reported-measurement>
34.2

$$$$
>  <mol>
O=c1c(O)c(-c2cccc(-c3ccc(O)c(O)c3)c2)oc2ccc(O)cc12

>  <assay-readout>
inhibition at 2 h, 10 µM

>  <units-text>
%

>  <reported-measurement>
4.2

$$$$
>  <mol>
O=c1c(O)c(-c2csc3ccccc23)oc2ccccc12

>  <assay-readout>
inhibition at 2 h, 10 µM

>  <units-text>
%

>  <reported-measurement>
-22.7

$$$$
>  <mol>
O=c1c(O)c(-c2ccco2)oc2cc(O)ccc12

>  <assay-readout>
inhibition at 2 h, 10 µM

>  <units-text>
%

>  <reported-measurement>
18.7

$$$$
>  <mol>
COc1ccc2c(=O)c(O)c(-c3cc(C)cs3)oc2c1

>  <assay-readout>
inhibition at 2 h, 10 µM

>  <units-text>
%

>  <reported-measurement>
5.93

$$$$

---

target: CYP3A4 (Homo sapiens); assay: Inhibition of human microsomal CYP3A4 expressed in baculovirus infected insect cells at 10 uM using luciferin-IPA as substrate preincubated with enzyme/substrate mixture for 30 mins followed by further incubation with NADPH for 30 mins by CYP450 luciferase Glo assay relative to control; assay type: ADME; conditions: probe luciferin-IPA
assay-readout: inhibition at 0.5 h, 10 µM (%)

>  <mol>
COc1ccc2c(=O)c(O)c(-c3sccc3C)oc2c1

>  <assay-readout>
inhibition at 0.5 h, 10 µM

>  <units-text>
%

>  <reported-measurement>
79.4

$$$$
>  <mol>
O=c1c(O)c(-c2csc3ccccc23)oc2cc(Cl)ccc12

>  <assay-readout>
inhibition at 0.5 h, 10 µM

>  <units-text>
%

>  <reported-measurement>
-5.72

$$$$
>  <mol>
COc1ccc2c(=O)c(O)c(-c3ccco3)oc2c1

>  <assay-readout>
inhibition at 0.5 h, 10 µM

>  <units-text>
%

>  <reported-measurement>
-0.65

$$$$

---

We begin with a simple list: items and their reported inhibition at 0.5 h, 10 µM.
target: UniProtKB P33261; assay: Inhibition of human microsomal CYP2C19 expressed in baculovirus infected insect cells at 10 uM using luciferin-H EGE as substrate preincubated with enzyme/substrate mixture for 30 mins followed by further incubation with NADPH for 30 mins by CYP450 luciferase Glo assay relative to control; type: ADME; conditions: probe luciferin-H EGE
Sequence (P33261 whole entry): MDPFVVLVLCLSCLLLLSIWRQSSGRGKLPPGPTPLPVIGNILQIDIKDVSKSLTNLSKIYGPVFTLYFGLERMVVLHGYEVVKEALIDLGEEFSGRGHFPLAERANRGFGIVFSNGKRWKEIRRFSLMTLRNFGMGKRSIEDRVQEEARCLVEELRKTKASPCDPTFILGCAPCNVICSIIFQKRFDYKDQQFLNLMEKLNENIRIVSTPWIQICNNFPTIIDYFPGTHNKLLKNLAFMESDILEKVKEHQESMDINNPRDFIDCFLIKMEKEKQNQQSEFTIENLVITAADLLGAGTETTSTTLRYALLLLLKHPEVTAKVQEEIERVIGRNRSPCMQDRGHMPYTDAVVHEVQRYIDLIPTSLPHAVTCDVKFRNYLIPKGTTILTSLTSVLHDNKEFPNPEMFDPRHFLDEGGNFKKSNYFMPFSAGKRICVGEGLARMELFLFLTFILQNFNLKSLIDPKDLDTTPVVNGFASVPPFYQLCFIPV

>  <molecule>
O=c1c(O)c(-c2csc3ccccc23)oc2cc(F)ccc12

>  <system>
UniProtKB P33261

>  <units-text>
%

>  <inhibition at 0.5 h, 10 µM>
24.2

$$$$
>  <molecule>
O=c1c(O)c(-c2ccco2)oc2ccc(O)cc12

>  <system>
UniProtKB P33261

>  <units-text>
%

>  <inhibition at 0.5 h, 10 µM>
73.2

$$$$
>  <molecule>
Cc1ccsc1-c1oc2cc(O)ccc2c(=O)c1O

>  <system>
UniProtKB P33261

>  <units-text>
%

>  <inhibition at 0.5 h, 10 µM>
57.9

$$$$
>  <molecule>
COc1ccc2c(=O)c(O)c(-c3csc4ccccc34)oc2c1

>  <system>
UniProtKB P33261

>  <units-text>
%

>  <inhibition at 0.5 h, 10 µM>
62.3

$$$$
>  <molecule>
Cc1ccc2oc(-c3ccc(C)s3)c(O)c(=O)c2c1

>  <system>
UniProtKB P33261

>  <units-text>
%

>  <inhibition at 0.5 h, 10 µM>
19.1

$$$$
>  <molecule>
COc1ccc2oc(-c3cc(C)cs3)c(O)c(=O)c2c1

>  <system>
UniProtKB P33261

>  <units-text>
%

>  <inhibition at 0.5 h, 10 µM>
20.9

$$$$
>  <molecule>
COc1ccc2oc(-c3csc4ccccc34)c(OC(C)=O)c(=O)c2c1

>  <system>
UniProtKB P33261

>  <units-text>
%

>  <inhibition at 0.5 h, 10 µM>
69.6

$$$$
>  <molecule>
O=c1c(O)c(-c2csc3ccccc23)oc2ccccc12

>  <system>
UniProtKB P33261

>  <units-text>
%

>  <inhibition at 0.5 h, 10 µM>
31.3

$$$$
>  <molecule>
COc1ccc2oc(-c3c[nH]c4ccccc34)c(O)c(=O)c2c1

>  <system>
UniProtKB P33261

>  <units-text>
%

>  <inhibition at 0.5 h, 10 µM>
32.6

$$$$
>  <molecule>
COc1ccc2oc(-c3csc4ccccc34)c(OC(=O)N(C)C)c(=O)c2c1

>  <system>
UniProtKB P33261

>  <units-text>
%

>  <inhibition at 0.5 h, 10 µM>
26.3

$$$$
>  <molecule>
COc1ccc2oc(-c3csc4ccccc34)c(OC(=O)C(C)(C)C)c(=O)c2c1

>  <system>
UniProtKB P33261

>  <units-text>
%

>  <inhibition at 0.5 h, 10 µM>
31.8

$$$$
>  <molecule>
CCOc1ccc2c(=O)c(O)c(-c3csc4ccccc34)oc2c1

>  <system>
UniProtKB P33261

>  <units-text>
%

>  <inhibition at 0.5 h, 10 µM>
46.1

$$$$
>  <molecule>
Cc1csc(-c2oc3cccc(O)c3c(=O)c2O)c1

>  <system>
UniProtKB P33261

>  <units-text>
%

>  <inhibition at 0.5 h, 10 µM>
27.3

$$$$
>  <molecule>
COc1ccc2c(=O)c(O)c(-c3sccc3C)oc2c1

>  <system>
UniProtKB P33261

>  <units-text>
%

>  <inhibition at 0.5 h, 10 µM>
35.2

$$$$
>  <molecule>
CCOc1c(-c2csc3ccccc23)oc2ccc(OC)cc2c1=O

>  <system>
UniProtKB P33261

>  <units-text>
%

>  <inhibition at 0.5 h, 10 µM>
54.5

$$$$
>  <molecule>
COc1cccc2oc(-c3cc(C)cs3)c(O)c(=O)c12

>  <system>
UniProtKB P33261

>  <units-text>
%

>  <inhibition at 0.5 h, 10 µM>
19.2

$$$$
>  <molecule>
Cc1ccc2oc(-c3csc4ccccc34)c(O)c(=O)c2c1

>  <system>
UniProtKB P33261

>  <units-text>
%

>  <inhibition at 0.5 h, 10 µM>
22.4

$$$$
>  <molecule>
CCCCCCCCCCCCCCCCOP(=O)([O-])OCC[N+](C)(C)C [MILTEFOSINE]

>  <system>
UniProtKB P33261

>  <units-text>
%

>  <inhibition at 0.5 h, 10 µM>
7.9

$$$$

Measured values drawn from ChEMBL document CHEMBL4311972 for this set.
